Molecular target: T1, biotinylated peptide Bt-AEGPPGPQG (SEQ ID NO: 14)
T1 construct: also called biotinylated peptide 040; peptide 040
T1 peptide: Biotin-AEGPPGPQG
Assay: BIAcore, scFv over biotinylated peptide SEQ ID NO: 14 on streptavidin chip, dissociation 280 s
No end group written: not given here. *: point of attachment. Biotin = O=C1N[C@H]2[C@H](CS[C@H]2CCCCC(=O)*)N1
readout-type: koff (s⁻¹)
# output: bare number, implied unit s⁻¹

Q. Value lookup for koff; key = 9A4 scFv CDR3 VH mutant clone 14B (scFv, Derived from p9A4ICAT7-1) scFv: QIQLVQSGPELKKPGETVKISCKASGYTFTDYSIHWVKQAPGKGLKWMGWINTETGEPTYADDFKGRFAFSLETSASTAYLQINNLKNEDTATYFCARGGSLDHWGQGTTLTVSSGGGGSGGGGSGGGGSQIVLTQSPVFMSASPGEKVTMTCSASSSVSYMYWYQQKPGSSPRLLIHATSNLASGVPVRFSGGGSGTSYSLTISRMEAEDAATYYCQQWRSYTRTFGGGTKLEIIAAAHHHHHHGAAEQKLISEEDLNGAA
A. 0.0027
